# experiment description: in vivo
# applied conditions: mouse, in vivo, po, Therapeutic index PTZ, LD50 per os/ED50 per os, PTZ
value kind: selectivity ratio

Field: example entries. Status: answers known.
[
  {
    "molecule": "CCCCON=C(C)c1scnc1C.Cl [Ex. 9, hydrochloride]",
    "selectivity ratio": "> 7.3"
  },
  {
    "molecule": "CC(=NOCc1cccc(Cl)c1)c1scnc1C [Ex. 14]",
    "selectivity ratio": "> 7.1"
  },
  {
    "molecule": "CC(=NOCc1ccccc1F)c1scnc1C [Ex. 13]",
    "selectivity ratio": "> 9.5"
  }
]

Form field selectivity ratio, entry CCON=C(C)c1scnc1C [Ex. 5] : 10
